- measured.target: Cyclin-dependent kinase 2/cyclin A (Homo sapiens)
- method.summary: Inhibitory activity against CDK2/Cyclin A
pIC50: −log10 of the molar value.
experimental.readout: pIC50

CC(C)C(=O)N1Cc2n[nH]c(NC(=O)c3ccc4c(c3)OCO4)c2C1; 6.37
CC(C)NC(=O)N1Cc2n[nH]c(NC(=O)c3ccc4c(c3)OCO4)c2C1; 6.92
NC(=O)N1Cc2n[nH]c(NC(=O)Cc3ccccc3)c2C1; 7.52
CCCCNC(=O)N1Cc2n[nH]c(NC(=O)Cc3ccc(N4CCCC4=O)cc3)c2C1; 7.29
CC(=O)N1Cc2n[nH]c(NC(=O)Cc3ccccc3)c2C1; 6.36
CC(=O)N1Cc2n[nH]c(NC(=O)c3ccc(C)cc3)c2C1; 5.97
CC(=O)N1Cc2n[nH]c(NC(=O)c3ccc(C#N)cc3)c2C1; 5.80

====

- measured.target: Cyclin-dependent kinase 2/cyclin E (Homo sapiens, UniProt P24941)
- method.summary: Inhibitory activity against CDK2/Cyclin E
experimental.readout: IC50 (nM)

CCCCNC(=O)N1Cc2n[nH]c(NC(=O)Cc3ccc(N4CCCC4)cc3)c2C1; 91
CCCCNC(=O)N1Cc2n[nH]c(NC(=O)[C@@H](C)c3ccc4ccccc4c3)c2C1; 90

====

Reported fraction unbound values follow for various compounds
- method.summary: Plasma protein binding
- Format: ADME, cell-free
- assay.setup: human, read-out: PPB (converted)
experimental.readout: fraction unbound

CCCCNC(=O)N1Cc2n[nH]c(NC(=O)Cc3ccc(N4CCCC4)cc3)c2C1; 0.05
CCCCNC(=O)N1Cc2n[nH]c(NC(=O)[C@@H](C)c3ccc4ccccc4c3)c2C1; 0.01

====

- measured.target: Cyclin-dependent kinase 2/cyclin A (Homo sapiens, UniProt P24941)
- method.summary: Inhibitory activity against CDK2/Cyclin A
pIC50: −log10 of the molar value.
experimental.readout: pIC50

CC(=O)N1Cc2n[nH]c(NC(=O)c3cccc(F)c3)c2C1; 5.68
CCCCNC(=O)N1Cc2n[nH]c(NC(=O)Cc3ccc4ccccc4c3)c2C1; 7.35
CC(=O)N1Cc2n[nH]c(NC(=O)c3ccccc3)c2C1; 5.94
CC(=O)N1Cc2n[nH]c(NC(=O)c3ccc(F)cc3)c2C1; 5.60
CCCCNC(=O)N1Cc2n[nH]c(NC(=O)Cc3ccccc3F)c2C1; 7.29
O=C(Cc1ccccc1)Nc1[nH]nc2c1CN(C(=O)Nc1ccccc1)C2; 6.14
CCCCNC(=O)N1Cc2n[nH]c(NC(=O)[C@@H](C)c3ccc4ccccc4c3)c2C1; 7.44
CC(=O)N1Cc2n[nH]c(NC(=O)c3ccc4c(c3)OCO4)c2C1; 5.56
Cc1ccc(C(=O)Nc2[nH]nc3c2CN(C(=O)c2cccc4cccnc24)C3)cc1; 5.98
CCCCNC(=O)N1Cc2n[nH]c(NC(=O)Cc3ccc(N4CCCC4)cc3)c2C1; 7.48
COc1ccc(C(=O)Nc2[nH]nc3c2CN(C(C)=O)C3)cc1; 5.86

====

- measured.target: Cyclin-dependent kinase 5/CDK5 activator 1 (Homo sapiens)
- Sequence (Q00535 whole entry): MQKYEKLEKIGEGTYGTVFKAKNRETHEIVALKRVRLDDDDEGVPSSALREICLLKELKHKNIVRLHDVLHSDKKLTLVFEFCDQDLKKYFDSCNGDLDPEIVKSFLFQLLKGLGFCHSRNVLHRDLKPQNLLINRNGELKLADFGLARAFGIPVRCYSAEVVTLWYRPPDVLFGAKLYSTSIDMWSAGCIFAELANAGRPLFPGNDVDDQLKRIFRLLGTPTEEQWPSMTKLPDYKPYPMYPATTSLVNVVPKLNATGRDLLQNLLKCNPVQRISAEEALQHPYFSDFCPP
- Sequence (Q15078 whole entry, further chain): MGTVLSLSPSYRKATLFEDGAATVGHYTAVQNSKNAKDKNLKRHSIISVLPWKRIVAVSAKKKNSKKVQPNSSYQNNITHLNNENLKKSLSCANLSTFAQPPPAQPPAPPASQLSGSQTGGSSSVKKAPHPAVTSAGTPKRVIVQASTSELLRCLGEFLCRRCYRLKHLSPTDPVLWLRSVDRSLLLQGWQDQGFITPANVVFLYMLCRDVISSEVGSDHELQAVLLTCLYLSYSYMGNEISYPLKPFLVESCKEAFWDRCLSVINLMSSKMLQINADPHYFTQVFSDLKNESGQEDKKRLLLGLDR
- method.summary: Inhibitory activity against CDK5/p25
experimental.readout: IC50

CCCCNC(=O)N1Cc2n[nH]c(NC(=O)[C@@H](C)c3ccc4ccccc4c3)c2C1; 150 nM

====

- method.summary: Solubility in buffer
- Type: physicochemical
experimental.readout: solubility

CCCCNC(=O)N1Cc2n[nH]c(NC(=O)Cc3ccc(N4CCCC4)cc3)c2C1; 39 µM
CCCCNC(=O)N1Cc2n[nH]c(NC(=O)[C@@H](C)c3ccc4ccccc4c3)c2C1; 27 µM

====

- measured.target: Cyclin-dependent kinase 1/cyclin B (Homo sapiens, UniProt P06493)
- method.summary: Inhibitory activity against CDK1/Cyclin B
experimental.readout: IC50 (nM)

CCCCNC(=O)N1Cc2n[nH]c(NC(=O)[C@@H](C)c3ccc4ccccc4c3)c2C1; 750
CCCCNC(=O)N1Cc2n[nH]c(NC(=O)Cc3ccc(N4CCCC4)cc3)c2C1; 400

====

# collection of IC50 values tested on Aurora kinase A (Homo sapiens)
# Sequence (O14965 whole entry): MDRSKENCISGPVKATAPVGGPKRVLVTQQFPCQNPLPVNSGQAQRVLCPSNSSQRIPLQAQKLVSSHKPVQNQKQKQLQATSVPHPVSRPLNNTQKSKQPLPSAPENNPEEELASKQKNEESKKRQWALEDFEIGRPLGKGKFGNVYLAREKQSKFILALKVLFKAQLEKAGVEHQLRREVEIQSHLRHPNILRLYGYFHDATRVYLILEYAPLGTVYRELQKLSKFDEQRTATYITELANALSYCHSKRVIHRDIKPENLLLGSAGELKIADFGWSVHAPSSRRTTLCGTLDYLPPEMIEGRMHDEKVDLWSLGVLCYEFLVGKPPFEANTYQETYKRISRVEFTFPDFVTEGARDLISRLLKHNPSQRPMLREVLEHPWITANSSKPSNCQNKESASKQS
experimental.readout: IC50 (µM)

CC(=O)N1Cc2n[nH]c(NC(=O)c3ccc(C#N)cc3)c2C1; 8.5
CCCCNC(=O)N1Cc2n[nH]c(NC(=O)Cc3ccc(N4CCCC4)cc3)c2C1; 4.2
CC(=O)N1Cc2n[nH]c(NC(=O)c3cccc(F)c3)c2C1; 4.85
COc1ccc(C(=O)Nc2[nH]nc3c2CN(C(C)=O)C3)cc1; 0.66

====

# collection of IC50 values tested on Glycogen synthase kinase-3 beta (Homo sapiens)
# Sequence (P49841 whole entry): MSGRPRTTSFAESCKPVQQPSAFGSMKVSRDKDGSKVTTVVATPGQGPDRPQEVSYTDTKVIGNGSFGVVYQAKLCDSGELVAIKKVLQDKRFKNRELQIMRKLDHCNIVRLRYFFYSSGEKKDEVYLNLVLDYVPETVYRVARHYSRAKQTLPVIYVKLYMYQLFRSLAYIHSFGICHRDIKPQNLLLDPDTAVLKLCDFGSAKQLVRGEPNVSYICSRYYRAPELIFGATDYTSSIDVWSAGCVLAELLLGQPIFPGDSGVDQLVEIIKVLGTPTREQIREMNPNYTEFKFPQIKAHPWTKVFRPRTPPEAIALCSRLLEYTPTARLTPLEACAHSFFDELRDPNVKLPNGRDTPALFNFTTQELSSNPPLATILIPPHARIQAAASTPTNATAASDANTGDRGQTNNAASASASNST
experimental.readout: IC50 (nM)

CCCCNC(=O)N1Cc2n[nH]c(NC(=O)[C@@H](C)c3ccc4ccccc4c3)c2C1; 50
CCCCNC(=O)N1Cc2n[nH]c(NC(=O)Cc3ccc(N4CCCC4)cc3)c2C1; 300
